Target: T1, recombinant Bacteroides fragilis toxin 1 (BFT1), full length without signal peptide (Bacteroides fragilis (enterotoxigenic), …)
T1 construct: B. fragilis toxin subtype 1 (BFT1, fragilysin), zinc-dependent metallopeptidase of enterotoxigenic Bacteroides fragilis; prodomain plus catalytic domain, without the signal peptide; also called B. fragilis toxin; source: E. coli Origami-2 (DE3), purified (Ni-NTA, SEC on Superdex 75)
T1 chain: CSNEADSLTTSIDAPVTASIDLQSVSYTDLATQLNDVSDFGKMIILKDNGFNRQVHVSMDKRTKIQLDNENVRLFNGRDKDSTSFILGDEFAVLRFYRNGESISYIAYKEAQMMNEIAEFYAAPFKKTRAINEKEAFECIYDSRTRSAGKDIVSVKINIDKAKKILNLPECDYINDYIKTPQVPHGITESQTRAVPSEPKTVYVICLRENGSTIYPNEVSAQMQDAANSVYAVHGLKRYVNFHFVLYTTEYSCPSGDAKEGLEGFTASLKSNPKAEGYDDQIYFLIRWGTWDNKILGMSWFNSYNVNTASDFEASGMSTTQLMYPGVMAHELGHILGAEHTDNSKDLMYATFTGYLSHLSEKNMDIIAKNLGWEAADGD
Experiment: ITC; Microcal ITC 200, 25°C; 20 mM Tris pH 8.0, 150 mM NaCl, 5% glycerol; nanobody (20 μM) injected into BFT solution (200 μM); one binding site mode
Details: both partners purified
# maps each entry to its dH
OBSERVABLE: dH (kcal/mol)

# BINDER, MEASURED_VALUE
records = [
    ("Nb3.43 (VHH, from round 3 of bio-panning; source: E. coli WK6 periplasm, purified (Ni-NTA, SEC on Superdex 75)) VHH: QVQLQESGGGLVQAGGSLRLSCARSGRTFSSFAMGWFRQAPGKEREFVATINWSGDKTSYADSVKGRFTISRDNAKNTVYLQMNSLKPEDTAVYYCAQMDGTYYSGSPGYWGQGTQVTVSS", -9.06),
    ("Nb3.93 (VHH, from round 3 of bio-panning; source: E. coli WK6 periplasm, purified (Ni-NTA, SEC on Superdex 75)) VHH: QVQLQESGGGLVQPGGSLRLSCAASGSTLARYHIGWFRQAPGKEREGVACISSSGDSTNYADSVKGRFTISRDNANNTVYLQMNSLKPEDTAVYYCVADPLKCILRRGGENRYLEHWGQGTQVTVSS", -22.1),
]
